Data origin, for the record: paper PMC7266096

# maps each entry to its log10 of IC50
Molecular target: NDM-1 (Klebsiella pneumoniae, UniProt C7C422)
Sequence (C7C422 29-270, looked up): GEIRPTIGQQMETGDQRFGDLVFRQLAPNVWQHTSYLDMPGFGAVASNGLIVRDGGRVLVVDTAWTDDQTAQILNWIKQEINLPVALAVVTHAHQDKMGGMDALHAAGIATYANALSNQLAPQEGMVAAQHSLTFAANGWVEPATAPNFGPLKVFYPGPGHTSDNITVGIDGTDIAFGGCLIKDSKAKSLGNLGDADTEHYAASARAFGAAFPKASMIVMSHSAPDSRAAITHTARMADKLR
metric: log10 of IC50 (log10 of the value in µM)

* CO/N=C(\C(=O)N[C@@H]1C(=O)N2C(C(=O)O)=C(CSc3nc(=O)c(=O)[nH]n3C)CS[C@H]12)c1csc(N)n1 | 1.20
* CC1=C(C(=O)O)N2C(=O)[C@@H](NC(=O)[C@H](N)c3ccccc3)[C@H]2SC1 | 1.56
* [O-][n+]1ccccc1S | 1.23
* c1ccc(CN(CCN(Cc2ccccn2)Cc2ccccn2)Cc2ccccn2)nc1 | -1.06
* O=C(O)c1cccc(C(=O)O)n1 | 0.26
* CC(=O)OCC1=C(C(=O)O)N2C(=O)[C@@H](NC(=O)Cc3cccs3)[C@H]2SC1 | 0.96
